Reference source for all entries: patent US12178804B2

Could you please report measured water absorbed at the 30th day for the items listed next?
- test.description: Hygroscopicity test at room temperature/95% RH in an open system
- Assay type: physicochemical
- assay.conditions: 30th day, FIG. 41
Numbers only, in %.

Below are worked cases with known answers.
1. N[C@@H]1CONC1=O [D-cycloserine]
41.3
2. O=C(O)/C=C\C(=O)O [Maleic acid, maleic acid]
100.4

Please state, for each entry, its recorded water absorbed at the 30th day.
1. N[C@@H]1CONC1=O [D-cycloserine from Strides Shasun Ltd., D-cycloserine]
2. N[C@@H]1CONC1=O.O=C(O)/C=C\C(=O)O [D-cycloserine maleate (1:1) salt form, D-cycloserine maleate]

[out]
41.9
1.3

----------
- test.description: Hygroscopicity test at room temperature/95% RH in an open system
- Format: physicochemical
- assay.conditions: 30th day, FIG. 42
readout.label: water absorbed at the 30th day (%)
One number for each entry, in %.

Below are worked cases with known answers.
1. N[C@@H]1CONC1=O.N[C@@H]1CONC1=O.O=C(O)C(O)C(O)C(=O)O [D-cycloserine D-tartrate]
1.3
2. N[C@@H]1CONC1=O [D-cycloserine]
43.3
3. N[C@@H]1CONC1=O [D-cycloserine from Strides Shasun Ltd., D-cycloserine]
42.7

[in] If you can, please state the reported water absorbed at the 30th day value of O=C(O)[C@@H](O)[C@H](O)C(=O)O .
[out] 177.0

----------
- test.description: Hygroscopicity test at room temperature/95% RH in an open system
- Format: physicochemical
- assay.conditions: 60th day, FIG. 40
readout.label: water absorbed at the 60th day (%)
Give bare numbers, in %.

Below are worked cases with known answers.
1. N[C@@H]1CONC1=O [D-cycloserine from Strides Shasun Ltd., D-cycloserine]
59.2
2. O=C(O)[C@H](O)[C@@H](O)C(=O)O [L-tartaric acid]
244.6
3. N[C@@H]1CONC1=O [D-cycloserine]
62.5

Please look at the following molecule next.
[in] If you can, please state the reported water absorbed at the 60th day value of N[C@@H]1CONC1=O.O=C(O)C(O)C(O)C(=O)O [D-cycloserine L-tartrate] .
[out] 18.9
